# System: DMS-273
# ASSAY_TEXT: NCI tumour cell line growth inhibition, 48 h
Calls of active or inactive are those of the source. Rule as the data show it: active = GI50 up to about 1.1 µM and inactive = higher.
// one of class 1 = active, class 0 = inactive, no free text

Illustrative cases are given below, each with its answer.
CCCCCCCCC1C(C)c2c([nH]c3ccccc23)C2C(=O)N(c3ccccc3)C(=O)C21 (centres undefined) = class 0
COc1cc(/C=C\c2ccc(Cl)cc2)cc(OC)c1OC = class 1
C/C(=C1/N=C(c2cc([N+](=O)[O-])ccc2Cl)N(c2ccc(Br)cc2)C1=O)c1ccc(N(CCC#N)CCC#N)cc1C = class 0
C/C(=N\N)C(CN1CCOCC1)C(c1ccccc1)c1c(O)c2ccccc2oc1=O (centres undefined) = class 0
CC12CCC3(OCCO3)C(OC(=O)c3ccccc3)=C1CCC21OCCO1 (centres undefined) = class 0
Nc1nc(N)c2cc(CNc3ccc(C(=O)NC(CC(=O)O)C(=O)O)c(Cl)c3)ccc2n1 (centres undefined) = class 1

Enquiry: Call for entry COc1ccc(/N=N/c2c(-c3ccccc3)nn(C(=O)CC(=O)Nc3ccc(OC)cc3)c2-c2ccccc2)cc1 :
Return: class 0

Enquiry: Call for entry Cc1cc(NCCCCCCCCNc2cc(C)nc3cc(N(C)C)ccc23)c2ccc(N(C)C)cc2n1 :
Return: class 0

Enquiry: Call for entry CCOC(=O)c1c[nH]c2c(ccc3nn(C)nc32)c1=O :
Return: class 0
